Molecular target: T1, 人CD43 (human CD43, UMG1 epitope), endogenous on human cells, cell lines and tissues (human, UniProt P16150 20-400)
T1 construct: The cells carry the natural protein; also called UMG1表位; UMG1抗原
T1 sequence: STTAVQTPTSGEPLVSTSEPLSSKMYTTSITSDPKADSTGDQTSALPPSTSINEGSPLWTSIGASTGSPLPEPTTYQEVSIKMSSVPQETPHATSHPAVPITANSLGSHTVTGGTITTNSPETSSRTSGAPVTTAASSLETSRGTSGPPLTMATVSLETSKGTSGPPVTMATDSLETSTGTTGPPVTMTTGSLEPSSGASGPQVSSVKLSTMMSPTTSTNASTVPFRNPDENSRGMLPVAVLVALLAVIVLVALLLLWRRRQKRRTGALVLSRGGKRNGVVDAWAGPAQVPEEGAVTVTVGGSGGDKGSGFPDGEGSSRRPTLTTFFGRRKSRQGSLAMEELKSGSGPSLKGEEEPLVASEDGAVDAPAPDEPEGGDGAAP
Assay: flow cytometry (MFI) on HPB-ALL and H9 cells, 1 μg/ml, FITC mouse anti-human IgG
measurement-kind: binding result

1) 人源化UMG1抗体 H2-L1 (antibody, IgG1, V domains shown, one of the 16 combinations of H1-4 with L1-4) VH: EVQLVESGGGLVQPGGSLRLSCVASGFTFSSFGMHWVRQAPGKGLEWVSYISSGSGNFYYVDTVKGRFTISRDNAKNSLYLQMNSLRAEDTAVYYCARSTYYHGSRGAMDYWGQGTLVTVSS VL: EIVLTQSPATLSLSPGERATLSCSASSSVSSMYWYQQKPGLAPRLLIYDTSKMASGIPDRFSGSGSGTDFTLTISRLEPEDFAVYYCQQWSSYPPITFGQGTRLEIK = binds
